Hi! I'm sharing some IC50 results obtained with α-glucosidase (Saccharomyces cerevisiae).
Sequence (P53341 whole entry): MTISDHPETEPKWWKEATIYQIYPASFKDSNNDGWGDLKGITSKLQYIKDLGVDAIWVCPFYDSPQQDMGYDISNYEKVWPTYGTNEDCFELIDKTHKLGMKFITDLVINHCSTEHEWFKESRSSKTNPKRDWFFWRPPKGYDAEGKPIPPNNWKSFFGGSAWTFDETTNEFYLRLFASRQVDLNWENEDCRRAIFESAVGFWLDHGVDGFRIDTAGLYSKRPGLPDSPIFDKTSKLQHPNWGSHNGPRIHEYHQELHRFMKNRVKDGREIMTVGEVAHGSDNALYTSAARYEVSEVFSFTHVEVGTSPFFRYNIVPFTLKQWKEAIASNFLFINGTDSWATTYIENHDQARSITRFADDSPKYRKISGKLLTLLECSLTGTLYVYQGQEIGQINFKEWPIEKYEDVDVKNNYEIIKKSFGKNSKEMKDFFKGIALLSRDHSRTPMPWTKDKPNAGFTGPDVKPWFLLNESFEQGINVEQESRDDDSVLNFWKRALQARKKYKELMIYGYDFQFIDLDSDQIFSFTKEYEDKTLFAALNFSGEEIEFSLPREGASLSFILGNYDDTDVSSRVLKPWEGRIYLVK

- Molecule: "COc1cc(/C=C/C(=O)O)ccc1O [trans-Ferulic acid, trans-ferulic acid]"
  Relational Operator: ">"
  IC50 [µM]: 2060
- Molecule: "O=C(O)/C=C/c1ccc(O)cc1 [p-Coumaric acid, p-coumaric acid]"
  Relational Operator: ">"
  IC50 [µM]: 2440
- Molecule: "O=C(/C=C/c1ccc(O)c(O)c1)O[C@H](Cc1ccc(O)c(O)c1)C(=O)O [Rosmarinic acid, rosmarinic acid]"
  Relational Operator: "="
  IC50 [µM]: 514
- Molecule: "O=C(O)/C=C/c1ccc(O)c(O)c1 [Caffeic acid, caffeic acid]"
  Relational Operator: "="
  IC50 [µM]: 942

====

Experimental Details: Superoxide anion radical scavenging assay (PMS-NADH-NBT)
Type: biochemical
Recorded Conditions: isolated components (Table 5); mean ± SD (n = 3)
# reported IC50 Superoxide; entries follow
Metric: IC50 Superoxide

- Molecule: "O=C(O)/C=C/c1ccc(O)cc1"
  Reported: "256.00 ± 16.27 µg/mL"
- Molecule: "O=C(/C=C/c1ccc(O)c(O)c1)O[C@H](Cc1ccc(O)c(O)c1)C(=O)O"
  Reported: "61.62 ± 6.43 µg/mL"
- Molecule: "O=c1c(O)c(-c2ccc(O)cc2)oc2cc(O)cc(O)c12"
  Reported: "541.00 ± 18.47 µg/mL"
- Molecule: "O=c1c(O)c(-c2ccc(O)c(O)c2)oc2cc(O)cc(O)c12"
  Reported: "44.08 ± 3.07 µg/mL"
- Molecule: "O=C(O)/C=C/c1ccc(O)c(O)c1"
  Reported: "57.34 ± 7.44 µg/mL"
- Molecule: "COc1cc(/C=C/C(=O)O)ccc1O [trans-Ferulic acid, trans-ferulic acid]"
  Reported: "541.00 ± 26.95 µg/mL"
